Hi there, I'd appreciate the recorded inhibition for every entry that follows.
Molecular target: Protein-tyrosine kinase 6 (Homo sapiens) (UniProt Q13882)
Sequence (Q13882 whole entry, looked up): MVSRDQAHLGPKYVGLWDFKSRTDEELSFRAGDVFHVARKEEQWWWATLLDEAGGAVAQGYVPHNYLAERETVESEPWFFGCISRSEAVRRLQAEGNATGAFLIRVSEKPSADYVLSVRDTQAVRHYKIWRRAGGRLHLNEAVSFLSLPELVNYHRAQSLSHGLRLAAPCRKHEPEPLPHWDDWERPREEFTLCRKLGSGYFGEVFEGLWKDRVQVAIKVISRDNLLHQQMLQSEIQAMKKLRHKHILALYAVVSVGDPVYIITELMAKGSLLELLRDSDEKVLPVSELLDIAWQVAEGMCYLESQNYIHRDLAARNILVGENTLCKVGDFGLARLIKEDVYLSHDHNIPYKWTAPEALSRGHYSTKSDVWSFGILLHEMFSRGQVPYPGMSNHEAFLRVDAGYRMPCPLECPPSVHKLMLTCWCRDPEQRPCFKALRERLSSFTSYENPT
Conditions: at 0.1 µM
Description: GSK_PKIS: BRK mean inhibition at 0.1 uM [Nanosyn]
Quick note: give the figure in %, leave out the unit.

Entry CCc1ccc(Oc2nccc(-c3c(-c4ccc(F)cc4)ncn3C3CCNCC3)n2)cc1 , tested on Protein-tyrosine kinase 6 (Homo sapiens) (UniProt Q13882), has a reported inhibition of 2.72

Entry COc1cc(Nc2ncc(-c3ccccc3)o2)cc(OC)c1OC , tested on Protein-tyrosine kinase 6 (Homo sapiens) (UniProt Q13882), has a reported inhibition of 0.16

Entry CCN(CC)Cc1ccc(Nc2nccc(-c3cnn4ncccc34)n2)cc1 , tested on Protein-tyrosine kinase 6 (Homo sapiens) (UniProt Q13882), has a reported inhibition of 3.93

Entry Fc1ccc(-c2c(-c3ccncc3)nc3n2CCS3)cc1 , tested on Protein-tyrosine kinase 6 (Homo sapiens) (UniProt Q13882), has a reported inhibition of 4.76

Entry COc1ccc2cc(-c3c(-c4ccncc4)nc(-c4ccc(S(C)(=O)=O)cc4C)n3C)ccc2c1 , tested on Protein-tyrosine kinase 6 (Homo sapiens) (UniProt Q13882), has a reported inhibition of 29

Origin of the recorded values: ChEMBL document CHEMBL1961873
